System: HCC 2998
Test method notes: NCI tumour cell line growth inhibition, 48 h
Activity calls are given as the source filed them. No stated cut-off is given here; in the data, active = GI50 up to about 1.1 µM and inactive = higher.
The reply should be one of these categories: active, inactive

Take a look at these entries with their results.
molecule=O=C1/C(=C/c2cc3c(=O)c4ccccc4sc3s2)NC(=S)N1c1ccccc1 study_system="HCC 2998" class_label=inactive
molecule=COc1cccc(NC(=O)C(C)(C)C)c1C=O study_system="HCC 2998" class_label=inactive
molecule=C=CC(=O)N1C/C(=C\c2ccc(Cl)c(Cl)c2)C(=O)/C(=C/c2ccc(Cl)c(Cl)c2)C1 study_system="HCC 2998" class_label=active

QUERY: For CCc1nnc(CC)n1N1C(=O)CCC1=O , which call appears in the assay record?
RESULT: inactive

QUERY: For O=C1CCCC/C1=C\c1ccc(Cl)c(Cl)c1 , which call appears in the assay record?
RESULT: inactive

QUERY: For C1CCSCCCCSCCCCSCCCCSC1 , which call appears in the assay record?
RESULT: inactive

QUERY: For CC(C)(C)C(=O)OCC1CCC(n2cnc3c(=O)[nH]c(N)nc32)O1 (stereo not drawn) , which call appears in the assay record?
RESULT: inactive

QUERY: For COc1ccccc1NC(=O)CC(=O)N/N=C/c1ccc(N(CCC#N)S(=O)(=O)c2ccccc2)cc1 , which call appears in the assay record?
RESULT: inactive

QUERY: For CCOC(=O)C1C=C2O[C@@H]3OC4(CCCCC4)O[C@@H]3C2C2C(=O)CCC(=O)[C@@]12C(=O)OC (stereo partly drawn) , which call appears in the assay record?
RESULT: inactive

QUERY: For O=c1c2ncn(C3CCCO3)c2n(-c2ccccc2)c(=S)n1-c1ccccc1 (stereo not drawn) , which call appears in the assay record?
RESULT: inactive

QUERY: For Cc1cccc(C(C)(C)C)c1NC(=O)C(C#N)C1=C(Cl)C(=O)c2ccccc2C1=O (stereo not drawn) , which call appears in the assay record?
RESULT: inactive

QUERY: For Oc1ccc2c(O)cc(-c3ccccc3)nc2c1 , which call appears in the assay record?
RESULT: inactive
